Test details: Pharmacokinetics in rat
Format: in vivo
Experimental conditions: in vivo; rat, oral doses of 1, 3 and 10 mg/kg
Assay readout: Tmax (h)
Number only, in h; omit the unit.

Q. Find the recorded Tmax belonging to `Cc1ccc(C)c2oc(-c3nc(-c4ccc(C(=O)O)cc4)no3)cc12` and report it.
A. 1.7

###

Target of assay: RARβ (Mus musculus, UniProt P22605)
Construct: expressed in transfected cells; host or cells: COS-7
Sequence (P22605 210-444 limits assumed): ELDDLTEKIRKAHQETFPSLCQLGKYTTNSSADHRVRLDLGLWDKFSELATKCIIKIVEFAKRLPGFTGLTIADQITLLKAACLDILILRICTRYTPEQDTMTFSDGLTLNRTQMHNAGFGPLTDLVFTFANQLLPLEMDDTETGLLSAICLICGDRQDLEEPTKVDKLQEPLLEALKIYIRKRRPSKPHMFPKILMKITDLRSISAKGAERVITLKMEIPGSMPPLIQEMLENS
Test details: RAR beta transactivation assay (gal4-RAR LBD fusion, luciferase reporter, COS-7 cells)
Format: cell-based
Experimental conditions: EC50 ratio of α to β, mouse; Tables 1 and 4
Method: Compounds were tested in transactivation assays at the RAR α, β and γ receptors. Transactivation assays for RAR alpha, beta and gamma receptors: […] Briefly, on day one, 96 well plates were seeded with 8000 cells per well then left to recover overnight. […] Finally, on day four, the cells were lysed and their luciferase substrate was provided by the BrightGlo reagent (Promega), the plates were then read on the MicroBeta TriLux (Perkin Elmer). […]
Assay readout: Fold selectivity for β over α
Provide a numeric answer; units are not to be included.

Compound: CCCCOCCOc1nc(-c2ccc(C(=O)O)c(F)c2)sc1C [AC 261066, reference compound]
Value: 5.8
//
Compound: CCOc1c(Cl)cc(C(=O)Nc2ccc(C(=O)O)cc2)cc1Cl
Value: 0.037
//
Compound: Cc1ccc(C)c2oc(-c3nc(-c4ccc(C(=O)O)cc4)no3)cc12
Value: 13

Here is another compound to look at.
Q. Find the recorded Fold selectivity for β over α belonging to `CCOc1c(Cl)cc(-c2nc(-c3ccc(C(=O)O)cc3)no2)cc1Cl` and report it.
A. 12

###

Target of assay: RARβ (Mus musculus)
Construct: expressed in transfected cells; host or cells: COS-7
Test details: RAR beta transactivation assay (gal4-RAR LBD fusion, luciferase reporter, COS-7 cells)
Type: cell-based
Experimental conditions: EC50 ratio of γ to β, mouse
Assay readout: Fold selectivity for β over γ

Some solved entries appear below for comparison.
Compound: CC1(C)CCC(C)(C)c2cc(-c3nc(-c4ccc(C(=O)O)cc4)no3)ccc21
Target of assay: RARβ (Mus musculus)
Fold selectivity for β over γ: 0.0041
--
Compound: CC(C)(C)c1cc(-c2nc(-c3ccc(C(=O)O)cc3)no2)cc(C(C)(C)C)c1
Target of assay: RARβ (Mus musculus)
Fold selectivity for β over γ: 2.1
--
Compound: Cc1ccc(C)c2oc(-c3nc(-c4ccc(C(=O)O)cc4F)no3)cc12
Target of assay: RARβ (Mus musculus)
Fold selectivity for β over γ: 0.33
--
Compound: CCOc1c(Cl)cc(C(=O)Nc2ccc(C(=O)O)cc2)cc1Cl
Target of assay: RARβ (Mus musculus)
Fold selectivity for β over γ: 24
--
Compound: CCOc1c(Cl)cc(-c2noc(-c3ccc(C(=O)O)cc3)n2)cc1Cl
Target of assay: RARβ (Mus musculus)
Fold selectivity for β over γ: 0.05

Q. Request - read-out Fold selectivity for β over γ | tested on RARβ (Mus musculus) | compound `O=C(O)c1ccc(-c2noc(-c3cc4c(C(F)(F)F)ccc(F)c4o3)n2)cc1`
A. 2

Q. What do you get for `Cc1ccc(C)c2oc(-c3nc(-c4ccc(C(=O)O)cc4)no3)nc12` ?
A. 7.5

Q. What do you get for CCCCOCCOc1nc(-c2ccc(C(=O)O)c(F)c2)sc1C [AC 261066, reference compound] ?
A. 2.8

###

Test details: Pharmacokinetics in rat
Type: in vivo
Experimental conditions: blood; rat, iv dose 0.5 mg/kg
Assay readout: clearance
Output should be the measured figure followed by the unit it is expressed in.

Q. Find the recorded clearance belonging to Cc1ccc(C)c2oc(-c3nc(-c4ccc(C(=O)O)cc4)no3)cc12 [Compound 10] and report it.
A. 3.7 mL/min/kg

###

Target of assay: RARβ (Mus musculus)
Construct: expressed in transfected cells; host or cells: COS-7
Test details: RAR beta transactivation assay (gal4-RAR LBD fusion, luciferase reporter, COS-7 cells)
Format: cell-based
Experimental conditions: EC50 ratio of γ to β, mouse
Documented Fold selectivity for β over γ across a set of compounds
Provide a numeric answer; units are not to be included.

Some solved entries appear below for comparison.
Item smiles: Cc1cc(-c2noc(-c3cc4c(C)ccc(C)c4o3)n2)ccc1C(=O)O
Fold selectivity for β over γ: 1.8
//
Item smiles: CCOc1c(Cl)cc(-c2nnc(-c3ccc(C(=O)O)cc3)o2)cc1Cl
Fold selectivity for β over γ: 2.4

Q. Find the recorded Fold selectivity for β over γ belonging to `CCOc1c(Cl)cc(-c2nc(-c3ccc(C(=O)O)cc3)no2)cc1Cl` and report it.
A. 19

Q. What do you get for `CCOc1c(Cl)cc(-c2cnc(-c3ccc(C(=O)O)cc3)o2)cc1Cl` ?
A. 1.6

Q. What do you get for `Cc1ccc(C)c2oc(-c3nc(-c4ccc(C(=O)O)cc4)no3)cc12` ?
A. 5.6

Q. What do you get for `Cc1cc(C(=O)O)ccc1-c1noc(-c2cc3c(C)ccc(C)c3o2)n1` ?
A. 0.3

Q. What do you get for `Cc1ccc(C)c2sc(-c3nc(-c4ccc(C(=O)O)cc4)no3)cc12` ?
A. 2

Q. What do you get for `Cc1ccc(C)c2oc(-c3nc(-c4ccc(C(=O)O)c(F)c4)no3)cc12` ?
A. 3.8

Q. What do you get for `CCOc1c(Cl)cc(-c2csc(-c3ccc(C(=O)O)cc3)n2)cc1Cl` ?
A. 1.3

###

Target of assay: UniProt:P11712
Sequence (P11712 whole entry): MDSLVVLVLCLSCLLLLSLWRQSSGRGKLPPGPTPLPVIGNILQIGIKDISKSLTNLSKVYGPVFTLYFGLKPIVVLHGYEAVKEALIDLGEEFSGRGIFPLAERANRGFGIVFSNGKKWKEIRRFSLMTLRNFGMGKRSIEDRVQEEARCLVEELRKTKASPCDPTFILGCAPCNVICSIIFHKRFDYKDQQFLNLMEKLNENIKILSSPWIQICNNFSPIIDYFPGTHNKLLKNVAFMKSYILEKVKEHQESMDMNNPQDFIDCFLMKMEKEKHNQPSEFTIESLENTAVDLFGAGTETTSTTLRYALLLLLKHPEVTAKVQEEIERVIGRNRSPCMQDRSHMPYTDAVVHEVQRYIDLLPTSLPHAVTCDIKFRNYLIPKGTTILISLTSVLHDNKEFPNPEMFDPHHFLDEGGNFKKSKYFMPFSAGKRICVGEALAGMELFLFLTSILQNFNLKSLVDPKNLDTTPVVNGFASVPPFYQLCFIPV
Test details: Cyp450 inhibition, 2C9
Type: in vitro ADME
Experimental conditions: isoform 2C9
Assay readout: IC50

Q. Find the recorded IC50 belonging to Cc1ccc(C)c2oc(-c3nc(-c4ccc(C(=O)O)cc4)no3)cc12 [Compound 10] and report it.
A. > 25 µM
